ASSAY_EXPLANATION: HPLC-assay for stability of peptides in lyophilised formulation on storage for 3 months (Example 4)
Type: physicochemical
TEST_SETTINGS: +25° C. +/- 2° C.; 1 month
OBSERVABLE: stability of peptides in formulation, 1 M

Please review the following examples before continuing.
LTFGDVVAV (listed as Homo sapiens) [FABP7-001]	98.43 % of Initial
TLGEFLKLDRERAKN (listed as Homo sapiens) [BIR-002, Baculoviral IAP repeat-containing 5 (survivin) peptide]	97.49 % of Initial
GLWHHQTEV (listed as Homo sapiens) [NRCAM-001, Neuronal cell adhesion molecule peptide]	97.90 % of Initial

Turning to the following sequence.
Query: Find the measured stability of peptides in formulation, 1 M of ALWAWPSEL (listed as Homo sapiens) [BCA-002, Brevican tumour-associated peptide] and report it.
Response: 98.20 % of Initial

* * *

ASSAY_EXPLANATION: HPLC-assay for in-use stability after reconstitution with 4.2% sodium hydrogen carbonate solution (Example 2, peptides SEQ ID NO 1-10)
Type: physicochemical
TEST_SETTINGS: +mannitol/lutrol; 6 h after reconstitution
Measured in-use stability, peptide by HPLC-assay accompanies every entry in the list below.
Quick reminder: number only, in %, skip the unit.

Please review the following examples before continuing.
ALADGVQKV (listed as Homo sapiens) [APO-001, Apolipoprotein L1 tumour-associated peptide]	101.5
LLGATCMFV (listed as Homo sapiens) [CCN-001, Cyclin D1 tumour-associated peptide]	85.9
ALFDGDPHL (listed as Homo sapiens) [K67-001, KIAA0367 tumour-associated peptide]	102.5
VMAGDIYSV (listed as Homo sapiens) [ADF-002, Adipophilin tumour-associated peptide]	101.9
YVDPVITSI (listed as Homo sapiens) [MET-001, c-met proto-oncogene tumour-associated peptide]	101.7
SQDDIKGIQKLYGKRS (listed as Homo sapiens) [MMP-001, Matrix metalloproteinase 7 tumour-associated peptide]	100.9
SVASTITGV (listed as Homo sapiens) [ADF-001, Adipophilin tumour-associated peptide]	101.8
LAALPHSCL (listed as Homo sapiens) [RGS-001, RGS-5 tumour-associated peptide]	86.8

Turning to the following sequence.
Query: Find the measured in-use stability, peptide by HPLC-assay of SVFAGVVGV (listed as Homo sapiens) [GUC-001, GUCY1A3 tumour-associated peptide] and report it.
Response: 101.6

* * *

ASSAY_EXPLANATION: HPLC-assay for stability of peptides in lyophilised formulation on storage for 3 months (Example 4)
Type: physicochemical
TEST_SETTINGS: -20° C. +/- 5° C.; 1 month
OBSERVABLE: stability of peptides in formulation, 1 M

Query: Find the measured stability of peptides in formulation, 1 M of TFSYVDPVITSISPKYG (listed as Homo sapiens) [MET-005, Met proto-oncogene peptide] and report it.
Response: 99.14 % of Initial

* * *

ASSAY_EXPLANATION: HPLC-assay for stability of peptides in lyophilised formulation on storage for 3 months (Example 4)
Format: physicochemical
TEST_SETTINGS: +5° C. +/- 3° C.; 3 months
Measured stability of peptides in formulation, 3 M accompanies every entry in the list below.

TMLARLASA (listed as Homo sapiens) [CSP-001, Chondroitin sulfate proteoglycan 4 peptide]	99.81 % of Initial
KVFAGIPTV (listed as Homo sapiens) [PTP-005, Protein tyrosine phosphatase, receptor-type, Z polypeptide 1 peptide]	98.67 % of Initial

Turning to the following sequence.
Query: Find the measured stability of peptides in formulation, 3 M of ALWAWPSEL (listed as Homo sapiens) [BCA-002, Brevican tumour-associated peptide] and report it.
Response: 98.73 % of Initial
